// provenance: patent US20130096067A1

System: Raf-1^gof intestinal tumors
Conditions: Table 3 summary of hits, Screen ICCB; luciferase relative to DMSO; fed three consecutive days in vials
Counter-ions that a name gives are not always drawn. Numbered stars: 1 amine (or outer) side, 2 acyl side, 3 side chain; on linkers, the order of the positions; unused ones are H or OH. Bridge positions count the residues as written; N and C are the ends. Square brackets hold non-standard residues; d marks the D form. Peptide text beside a SMILES is read from it. I, II: the chains in the order shown. Actinocin(9to1) = Cc1c2oc3c(C)ccc(C(=O)[*:1])c3nc-2c(C(=O)[*:2])c(N)c1=O; NMeV = CN[C@H](C(=O)O)C(C)C; Sar = CNCC(=O)O
The entries below are paired with their reported log10(Fold).
property measured: log10(Fold) (log10 of the value in fold)

| compound | log10(Fold) |
| --- | --- |
| Cc1c2oc3c(C)ccc(C(=O)N[C@@H]4C(=O)N[C@H](C(C)C)C(=O)N5CCC[C@H]5C(=O)N(C)CC(=O)N(C)[C@@H](C(C)C)C(=O)O[C@@H]4C)c3nc-2c(C(=O)N[C@@H]2C(=O)N[C@H](C(C)C)C(=O)N3CCC[C@H]3C(=O)N(C)CC(=O)N(C)[C@@H](C(C)C)C(=O)O[C@@H]2C)c(N)c1=O [Dactinomycin] (I: T[dV]P[Sar][NMeV] / II: T[dV]P[Sar][NMeV]; ester I:1-I:C, II:1-II:C; linker I:N-II:N via Actinocin(9to1)) | -0.36 |
| C[C@@H]1C[C@@H]([C@H](O)CC2CC(=O)NC(=O)C2)C(=O)[C@@H](C)C1 [cycloheximide, reference compound] | -0.47 |
| CN(Cc1cnc2nc(N)nc(N)c2n1)c1ccc(C(=O)N[C@@H](CCC(=O)O)C(=O)O)cc1 [Methotrexate] | -0.80 |
| Oc1cc(O)cc(/C=C/c2ccc(O)c(O)c2)c1 [Piceatannol, reference compound] | -0.31 |
| COC[C@@H]([C@H](O)[C@H](O)C(=O)NCC[C@H](C)c1nc(/C=C/C[C@@H]2O[C@]3(C[C@@H](O)[C@@H]2C)O[C@H]([C@H](C[C@H](O)[C@H](C)[C@H](O)[C@H](C)/C=C(C)/C(C)=C/C=C/C(C)=C\C#N)OC)[C@H](OP(=O)(O)O)C3(C)C)co1)N(C)C [calyculin A, reference compound] | -0.38 |
| C[C@H](NC(=O)Cc1cc(F)cc(F)c1)C(=O)N[C@H]1N=C(c2ccccc2)c2ccccc2N(C)C1=O [Compound E, reference compound] | 0.43 |
| COc1cccc2c1cc([N+](=O)[O-])c1c(C(=O)O)cc3c(c12)OCO3 [aristolochic acid, reference compound] | -0.37 |
| CC[C@@]1(O)C(=O)OCc2c1cc1n(c2=O)Cc2cc3cc(O)ccc3nc2-1 [10-hydroxycamptothecin, reference compound] | -0.28 |
| C/C1=C/C(=O)O[C@@H]2C[C@@H](CC[C@H](C)/C=C\CC1)O[C@@](O)([C@@H]1CSC(=O)N1)C2 [Latrunculin B, reference compound] | -0.32 |
| CO[C@@]12[C@H](COC(N)=O)C3=C(C(=O)C(C)=C(N)C3=O)N1C[C@@H]1N[C@@H]12 | -0.33 |
| CC[C@@H]1/C=C/C=C/C[C@H](C)[C@H](O)[C@](C)(O)C(=O)[C@H](C)[C@@H](O)[C@H](C)C(=O)[C@H](C)[C@@H](O)[C@H](C)/C=C/C(=O)O[C@H]2[C@@H](C)[C@@H](CC1)O[C@@]1(CC[C@@H](C)[C@@H](C[C@H](C)O)O1)[C@@H]2C [oligomycin A, reference compound] | -0.34 |
| Nc1ncnc2c1c(I)cn2[C@@H]1O[C@H](CO)[C@@H](O)[C@H]1O [5-iodotubercidin, reference compound] | -0.28 |
| C=C1[C@@H](O)[C@@H]2O[C@]3(CC[C@H](/C=C/[C@@H](C)[C@@H]4CC(C)=C[C@@]5(O[C@H](C[C@@](C)(O)C(=O)O)CC[C@H]5O)O4)O3)CC[C@H]2O[C@@H]1[C@@H](O)C[C@H](C)[C@H]1O[C@@]2(CCCCO2)CC[C@H]1C [okadaic acid, reference compound] | -0.52 |
| CC/C(=C(\c1ccccc1)c1ccc(OCCN(C)C)cc1)c1ccccc1 [tamoxifen, reference compound] | -0.47 |
| CO[C@H]1C[C@@H]2CC[C@@H](C)[C@@](O)(O2)C(=O)C(=O)N2CCCC[C@H]2C(=O)O[C@H]([C@H](C)C[C@@H]2CC[C@@H](O)[C@H](OC)C2)CC(=O)[C@H](C)/C=C(\C)[C@@H](O)[C@@H](OC)C(=O)[C@H](C)C[C@H](C)/C=C/C=C/C=C/1C | -0.37 |
| CC[C@]1(O)C[C@@H]2CN(CCc3c([nH]c4ccccc34)[C@@](C(=O)OC)(c3cc4c(cc3OC)N(C)[C@H]3[C@@](O)(C(=O)OC)[C@H](OC(C)=O)[C@]5(CC)C=CCN6CC[C@]43[C@@H]65)C2)C1 [Vinblastine sulfate] | -0.69 |
| CC(=O)O[C@H]1C(=O)[C@@]2(C)[C@H]([C@H](OC(=O)c3ccccc3)[C@]3(O)C[C@H](OC(=O)[C@H](O)[C@@H](NC(=O)c4ccccc4)c4ccccc4)C(C)=C1C3(C)C)[C@]1(OC(C)=O)CO[C@@H]1C[C@@H]2O | -0.56 |
